molecular target: Monoamine transporters; serotonin & dopamine (Rattus norvegicus) (UniProt P31652+P23977); assay: Relative affinity for serotonin and Dopamine transporters; type: protein assay
Sequence (P23977 whole entry, looked up): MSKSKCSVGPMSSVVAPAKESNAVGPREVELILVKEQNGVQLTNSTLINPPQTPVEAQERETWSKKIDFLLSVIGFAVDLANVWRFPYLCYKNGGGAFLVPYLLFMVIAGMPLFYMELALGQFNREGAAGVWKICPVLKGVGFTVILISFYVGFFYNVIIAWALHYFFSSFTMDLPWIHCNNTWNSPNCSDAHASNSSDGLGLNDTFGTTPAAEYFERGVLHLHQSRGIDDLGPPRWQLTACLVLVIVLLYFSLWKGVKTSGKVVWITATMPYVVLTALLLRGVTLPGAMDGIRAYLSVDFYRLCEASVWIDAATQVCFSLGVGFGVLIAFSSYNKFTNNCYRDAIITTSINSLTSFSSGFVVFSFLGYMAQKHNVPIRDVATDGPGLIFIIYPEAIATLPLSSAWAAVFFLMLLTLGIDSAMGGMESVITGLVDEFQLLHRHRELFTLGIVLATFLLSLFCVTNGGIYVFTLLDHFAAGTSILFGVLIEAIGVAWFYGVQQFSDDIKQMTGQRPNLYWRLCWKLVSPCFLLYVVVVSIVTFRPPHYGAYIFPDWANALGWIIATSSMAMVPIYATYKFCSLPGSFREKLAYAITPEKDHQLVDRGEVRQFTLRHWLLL
Sequence (P31652 whole entry, looked up): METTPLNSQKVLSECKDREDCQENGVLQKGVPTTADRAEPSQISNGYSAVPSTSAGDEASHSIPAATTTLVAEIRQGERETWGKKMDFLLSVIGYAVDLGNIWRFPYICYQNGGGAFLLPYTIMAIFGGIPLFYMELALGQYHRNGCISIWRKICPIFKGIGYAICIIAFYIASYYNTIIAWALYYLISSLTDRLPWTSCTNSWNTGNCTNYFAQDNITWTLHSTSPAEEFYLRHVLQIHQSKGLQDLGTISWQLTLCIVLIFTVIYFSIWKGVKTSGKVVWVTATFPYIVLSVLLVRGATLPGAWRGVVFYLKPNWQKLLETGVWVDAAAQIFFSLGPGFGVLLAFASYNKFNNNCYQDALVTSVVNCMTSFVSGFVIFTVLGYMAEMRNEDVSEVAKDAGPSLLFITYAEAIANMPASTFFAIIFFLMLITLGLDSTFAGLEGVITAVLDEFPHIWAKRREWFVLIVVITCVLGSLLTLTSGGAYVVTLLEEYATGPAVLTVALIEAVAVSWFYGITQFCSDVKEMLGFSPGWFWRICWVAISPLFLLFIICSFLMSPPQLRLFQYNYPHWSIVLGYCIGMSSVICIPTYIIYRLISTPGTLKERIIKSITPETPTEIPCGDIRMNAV
Categorized via Ratio: range 1 = under 0.8, range 2 = from 0.8 up to 20, range 3 = 20 and over

Study these solved cases before continuing.
CCOC(=O)C1C2CCC(CC1c1ccc(-c3cccn3Cc3ccccc3)cc1)N2 (configuration not stated) | range 2
CCOC(=O)C1C(c2ccc3c(ccn3C)c2)CC2CCC1N2C (configuration not stated) | range 1
CCOC(=O)C1C2CCC(CC1c1ccc(-c3ccc(C)n3C)cc1)N2 (configuration not stated) | range 2
CCOC(=O)C1C2CCC(CC1c1ccc(-c3cccn3CC)cc1)N2 (configuration not stated) | range 3
CCOC(=O)C1C(c2ccc(-c3cccn3Cc3ccccc3)cc2)CC2CCC1N2C (configuration not stated) | range 2
CCOC(=O)C1C2CCC(CC1c1ccc(-c3cccn3C)cc1)N2 (configuration not stated) | range 3

# bin label for CCOC(=O)C1C(c2ccc(-c3cccn3C)cc2)CC2CCC1N2C (configuration not stated)
range 3

Also check CCOC(=O)C1C(c2ccc3c(ccn3CC)c2)CC2CCC1N2C (configuration not stated)
range 1

Now give it for CCOC(=O)C1C2CCC(CC1c1ccc3c(ccn3C)c1)N2 (configuration not stated) too.
range 2

###

# pKi measurements, system: Sodium-dependent serotonin transporter (Rattus norvegicus, UniProt P31652)
Note: pKi values are expressed as the negative base-10 logarithm of concentration in M.

Completed entries (count: 4):
CCOC(=O)C1C(c2ccc(-c3cccn3Cc3ccccc3)cc2)CC2CCC1N2C (centres undefined) | 7.23
CCOC(=O)C1C2CCC(CC1c1ccc3c(ccn3C)c1)N2 (centres undefined) | 8.76
CCOC(=O)C1C2CCC(CC1c1ccc(-c3ccc(-c4ccccc4)n3C)cc1)N2 (centres undefined) | 6.95
CCOC(=O)C1C2CCC(CC1c1ccc(-c3c(C)ccn3C)cc1)N2 (centres undefined) | 7.31

Lookup: pKi / Sodium-dependent serotonin transporter (Rattus norvegicus, UniProt P31652) / CCOC(=O)C1C2CCC(CC1c1ccc(-c3cccn3CC)cc1)N2 (centres undefined)
7.80

// next record CCOC(=O)C1C(c2ccc3c(ccn3CC)c2)CC2CCC1N2C (centres undefined)
8.26

What do we get for CCOC(=O)C1C(c2ccc(-c3cccn3C)cc2)CC2CCC1N2C (centres undefined) ?
7.59

// repeat for CCOC(=O)C1C2CCC(CC1c1ccc3c(ccn3CC)c1)N2 (centres undefined) and report
8.52

Same again, this time with CCOC(=O)C1C(c2ccc3c(ccn3C)c2)CC2CCC1N2C (centres undefined)
8.55

And then CCOC(=O)C1C2CCC(CC1c1ccc(-c3cccn3C)cc1)N2 (centres undefined) , what is it?
8.98

Here is the next compound: CCOC(=O)C1C(c2ccc(-c3cccn3CC)cc2)CC2CCC1N2C (centres undefined)
6.47

Input CCOC(=O)C1C2CCC(CC1c1ccc(-c3cccn3Cc3ccccc3)cc1)N2 (centres undefined)
8.20

Please give the result for CCOC(=O)C1C2CCC(CC1c1ccc(-c3ccc(C)n3C)cc1)N2 (centres undefined) too.
7.31

###

target: Monoamine transporters; serotonin & dopamine (Rattus norvegicus) (UniProt P31652+P23977); assay: Relative affinity for serotonin and Dopamine transporters; format: protein assay
Quick list: Ratio per entry.

Completed entries (count: 2):
CCOC(=O)C1C(c2ccc(-c3cccn3CC)cc2)CC2CCC1N2C (stereo not drawn) | > 2.97
CCOC(=O)C1C2CCC(CC1c1ccc(-c3ccc(-c4ccccc4)n3C)cc1)N2 (stereo not drawn) | > 8.93

Alright, here's another compound for you.
May I ask what Ratio has been recorded for CCOC(=O)C1C2CCC(CC1c1ccc3c(ccn3CC)c1)N2 (stereo not drawn) ?
0.78
